Molecular target: Xanthine dehydrogenase/oxidase (Rattus norvegicus, UniProt P22985)
Sequence (P22985 whole entry): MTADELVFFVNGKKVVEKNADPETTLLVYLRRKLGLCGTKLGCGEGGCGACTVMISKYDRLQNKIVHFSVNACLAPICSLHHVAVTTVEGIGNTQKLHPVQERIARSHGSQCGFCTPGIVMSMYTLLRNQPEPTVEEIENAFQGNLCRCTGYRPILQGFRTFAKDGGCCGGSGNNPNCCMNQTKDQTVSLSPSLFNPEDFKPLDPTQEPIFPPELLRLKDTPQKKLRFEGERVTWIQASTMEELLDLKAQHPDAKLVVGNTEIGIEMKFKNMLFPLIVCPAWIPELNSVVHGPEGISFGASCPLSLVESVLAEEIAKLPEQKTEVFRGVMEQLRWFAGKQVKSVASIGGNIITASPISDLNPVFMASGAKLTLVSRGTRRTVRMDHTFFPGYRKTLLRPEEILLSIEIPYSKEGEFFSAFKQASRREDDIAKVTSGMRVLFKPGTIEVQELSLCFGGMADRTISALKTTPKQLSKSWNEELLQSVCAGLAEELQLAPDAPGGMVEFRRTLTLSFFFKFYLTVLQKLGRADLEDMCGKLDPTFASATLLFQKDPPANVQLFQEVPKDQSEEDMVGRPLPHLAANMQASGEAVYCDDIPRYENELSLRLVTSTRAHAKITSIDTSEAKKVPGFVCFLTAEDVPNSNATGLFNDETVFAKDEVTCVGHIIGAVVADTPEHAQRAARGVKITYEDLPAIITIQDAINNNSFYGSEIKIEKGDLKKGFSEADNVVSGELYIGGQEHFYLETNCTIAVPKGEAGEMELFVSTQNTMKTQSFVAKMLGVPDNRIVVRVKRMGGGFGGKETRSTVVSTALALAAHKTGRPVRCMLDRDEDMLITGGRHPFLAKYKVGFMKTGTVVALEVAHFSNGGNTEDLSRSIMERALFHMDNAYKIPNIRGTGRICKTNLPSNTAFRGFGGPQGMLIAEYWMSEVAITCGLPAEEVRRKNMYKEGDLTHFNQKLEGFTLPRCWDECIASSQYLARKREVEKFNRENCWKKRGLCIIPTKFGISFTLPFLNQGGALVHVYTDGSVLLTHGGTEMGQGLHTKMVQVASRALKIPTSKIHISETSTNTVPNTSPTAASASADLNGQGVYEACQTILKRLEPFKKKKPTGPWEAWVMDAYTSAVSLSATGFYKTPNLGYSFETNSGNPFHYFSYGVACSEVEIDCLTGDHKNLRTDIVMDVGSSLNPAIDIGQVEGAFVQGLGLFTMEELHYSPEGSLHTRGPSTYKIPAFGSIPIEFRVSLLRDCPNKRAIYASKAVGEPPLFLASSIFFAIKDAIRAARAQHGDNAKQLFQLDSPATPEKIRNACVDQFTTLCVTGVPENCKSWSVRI
Test: Inhibition of rat liver xanthine oxidase at 75 uM after 2 hrs by spectrophotometry
Details: 75 µM
Measurement Type: inhibition (INH)

Compound: COc1ccc(NC(=O)COc2cc(O)c3c(=O)c(O)c(-c4ccc5c(c4)OC(c4ccc(OCC(=O)Nc6ccc(OC)cc6)c(OC)c4)C(CO)O5)oc3c2)cc1 (racemic)
Tested System: Xanthine dehydrogenase/oxidase (Rattus norvegicus, UniProt P22985)
Result: Active
//
Compound: CCN(CC)C(=O)COc1cc(O)c2c(=O)c(O)c(-c3ccc4c(c3)OC(c3ccc(O)c(OC)c3)C(CO)O4)oc2c1 (racemic)
Tested System: Xanthine dehydrogenase/oxidase (Rattus norvegicus, UniProt P22985)
Result: Active

---

Catalogue of compounds with associated inhibition
Assay: Iron chelating activity assessed as inhibition of ferrozine-Fe2+ complex formation at 150 uM after 10 mins by spectrophotometry
Type: functional
Measurement Type: inhibition (%)

Compound: CCN(CC)C(=O)COc1cc(O)c2c(=O)c(O)c(-c3ccc4c(c3)OC(c3ccc(O)c(OC)c3)C(CO)O4)oc2c1 (racemic)
Measured Number: 52.5
--
Compound: COc1cc(C2Oc3cc(-c4oc5cc(OCC=C(C)C)cc(O)c5c(=O)c4O)ccc3OC2CO)ccc1O (racemic)
Measured Number: 51
--
Compound: O=C([O-])CN(CCN(CC(=O)[O-])CC(=O)O)CC(=O)O.[Na+].[Na+] [EDETATE DISODIUM ANHYDROUS]
Measured Number: 91.5
--
Compound: C=CCOc1cc(O)c2c(=O)c(O)c(-c3ccc4c(c3)OC(c3ccc(OCC=C)c(OC)c3)C(CO)O4)oc2c1 (racemic)
Measured Number: 72.5

---

Experiment: Antioxidant activity assessed as superoxide anion scavenging activity after 5 mins by spectrophotometry
Type: functional

Chemical String: O=c1c(O)c(-c2ccc(O)c(O)c2)oc2cc(O)cc(O)c12
EC50, µM: 38.6

---

Test: Iron chelating activity assessed as inhibition of ferrozine-Fe2+ complex formation at 150 uM after 10 mins by spectrophotometry
Type: functional
Rule: MET for inhibition not less than 60%, NOT MET for anything less.

Compound: COc1cc(C2Oc3cc(-c4oc5cc(O)cc(O)c5c(=O)c4O)ccc3OC2CO)ccc1O (stereo not given) [DEHYDROSILYLBIN]
Cat: NOT MET

Compound: O=c1c(O)c(-c2ccc(O)c(O)c2)oc2cc(O)cc(O)c12 [QUERCETIN]
Cat: NOT MET

Compound: COc1cc(C2Oc3cc(-c4oc5cc(OCC(=O)N6CCCC6)cc(O)c5c(=O)c4O)ccc3OC2CO)ccc1OCC(=O)N1CCCC1 (racemic)
Cat: MET

Compound: CCOC(=O)COc1cc(O)c2c(=O)c(O)c(-c3ccc4c(c3)OC(c3ccc(OCC(=O)OCC)c(OC)c3)C(CO)O4)oc2c1 (racemic)
Cat: NOT MET

Compound: CCN(CC)C(=O)COc1cc(O)c2c(=O)c(O)c(-c3ccc4c(c3)OC(c3ccc(OCC(=O)N(CC)CC)c(OC)c3)C(CO)O4)oc2c1 (racemic)
Cat: MET
